The reported numbers originate from patent US10196389B2.

# SYSTEM: human AMPK (α2β1γ1) (Homo sapiens, UniProt P54619+P54646+Q9Y478)
# Construct: made in house; host or cells: E. coli
# Sequence (P54646 whole entry): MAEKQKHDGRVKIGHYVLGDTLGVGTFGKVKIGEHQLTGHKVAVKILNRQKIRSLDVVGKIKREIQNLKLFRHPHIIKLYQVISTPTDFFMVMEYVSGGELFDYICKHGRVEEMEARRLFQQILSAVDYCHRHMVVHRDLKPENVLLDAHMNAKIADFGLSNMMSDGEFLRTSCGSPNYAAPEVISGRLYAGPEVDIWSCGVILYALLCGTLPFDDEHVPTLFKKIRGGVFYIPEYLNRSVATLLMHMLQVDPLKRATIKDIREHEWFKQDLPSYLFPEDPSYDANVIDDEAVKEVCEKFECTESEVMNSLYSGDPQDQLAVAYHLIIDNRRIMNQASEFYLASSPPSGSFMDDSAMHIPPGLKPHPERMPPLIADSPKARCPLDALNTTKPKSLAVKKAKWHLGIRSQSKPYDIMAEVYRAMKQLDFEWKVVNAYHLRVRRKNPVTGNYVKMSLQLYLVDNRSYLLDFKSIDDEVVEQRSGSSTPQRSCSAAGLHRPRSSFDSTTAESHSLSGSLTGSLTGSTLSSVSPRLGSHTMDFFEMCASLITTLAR
# Sequence (Q9Y478 whole entry): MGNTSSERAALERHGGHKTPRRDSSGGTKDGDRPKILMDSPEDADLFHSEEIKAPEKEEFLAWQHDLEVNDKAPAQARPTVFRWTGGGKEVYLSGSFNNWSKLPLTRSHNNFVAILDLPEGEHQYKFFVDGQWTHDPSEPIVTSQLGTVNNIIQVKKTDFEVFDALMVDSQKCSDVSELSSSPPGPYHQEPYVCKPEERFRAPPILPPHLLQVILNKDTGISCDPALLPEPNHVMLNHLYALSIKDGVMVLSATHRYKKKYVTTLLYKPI
# Sequence (P54619 whole entry): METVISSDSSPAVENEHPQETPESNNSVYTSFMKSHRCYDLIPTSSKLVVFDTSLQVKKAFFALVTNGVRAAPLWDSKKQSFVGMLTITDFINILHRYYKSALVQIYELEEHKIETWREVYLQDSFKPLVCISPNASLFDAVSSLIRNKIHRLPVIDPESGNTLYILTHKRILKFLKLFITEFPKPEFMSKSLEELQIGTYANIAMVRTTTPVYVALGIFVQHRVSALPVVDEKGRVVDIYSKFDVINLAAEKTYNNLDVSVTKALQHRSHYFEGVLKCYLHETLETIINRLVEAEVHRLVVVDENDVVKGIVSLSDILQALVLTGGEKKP
# TEST_DETAILS: AMPK (α2β1γ1) activation at molecular level, HTRF KinEASE-STK S1 kinase assay
# Format: biochemical
# ASSAY_CONTEXT: activation of human AMPK (α2β1γ1), 4 μM ATP, 45 min at 30° C.
RECORDED_METRIC: Activation ratio (Fold)
One number for each entry, in Fold.

[[record]]
compound = "COc1cc(CNC(=O)c2ccc(CN3CCc4c(c(=O)n(-c5ccc(F)c(C(F)(F)F)c5)n4C)C3)cc2)ccc1OC(C)C [ZM-25]"
recorded_metric = "Activation ratio (Fold)"
assay_result = 3.1

[[record]]
compound = "COc1cc(CNC(=O)c2ccc(CN3C=C4C(=O)N(c5ccc(F)c(C(F)(F)F)c5)N=C4CC3)cc2)ccc1OC(C)C [ZM-29]"
recorded_metric = "Activation ratio (Fold)"
assay_result = 2.9

[[record]]
compound = "[2H]C([2H])([2H])Oc1ccc(CNC(=O)c2ccc(CN3C=C4C(=O)N(c5ccc(F)c(C(F)(F)F)c5)N=C4CC3)cc2)cc1OC [ZM-34]"
recorded_metric = "Activation ratio (Fold)"
assay_result = 2.1


Field: next compound
// recorded Activation ratio (Fold) for CCOc1cc(CNC(=O)c2ccc(CN3C=C4C(=O)N(c5ccc(F)c(C(F)(F)F)c5)N=C4CC3)cc2)ccc1OC [ZM-22] : 2.9
